# measured.target: HIV Env of isolate 6811.v7.c18 (clade CD) (HIV)
# protocol: cell-based or functional assay
quantity.kind: IC50 (µg/ml) with constrains

Parameter requested: IC50 (µg/ml) with constrains. Apply to each item below.
1. PGDM1400 (antibody, V domains shown) VH: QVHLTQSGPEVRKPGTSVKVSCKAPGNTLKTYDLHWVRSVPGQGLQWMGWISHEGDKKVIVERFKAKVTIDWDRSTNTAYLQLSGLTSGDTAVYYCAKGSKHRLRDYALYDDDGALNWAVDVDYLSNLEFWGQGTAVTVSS VL: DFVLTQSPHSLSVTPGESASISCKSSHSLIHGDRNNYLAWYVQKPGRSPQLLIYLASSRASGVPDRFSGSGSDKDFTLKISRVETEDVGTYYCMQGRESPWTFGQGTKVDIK
2. ePGDM9 (antibody, V domains shown) VH: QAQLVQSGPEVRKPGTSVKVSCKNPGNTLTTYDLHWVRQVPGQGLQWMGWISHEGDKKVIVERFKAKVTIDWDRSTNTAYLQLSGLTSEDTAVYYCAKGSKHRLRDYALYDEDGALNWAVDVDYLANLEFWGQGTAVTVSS VL: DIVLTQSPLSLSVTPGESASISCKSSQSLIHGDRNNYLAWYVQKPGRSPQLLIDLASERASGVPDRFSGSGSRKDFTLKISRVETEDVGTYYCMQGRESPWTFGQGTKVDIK

Key:
["> 100 µg/mL", "> 100 µg/mL"]

Parameter requested: IC50 (µg/ml) with constrains. Apply to each item below.
1. ePGDM13 (antibody, V domains shown) VH: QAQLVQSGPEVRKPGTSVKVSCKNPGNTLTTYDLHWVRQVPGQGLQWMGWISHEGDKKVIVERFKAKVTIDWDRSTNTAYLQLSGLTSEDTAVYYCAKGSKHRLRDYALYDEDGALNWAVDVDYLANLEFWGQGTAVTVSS VL: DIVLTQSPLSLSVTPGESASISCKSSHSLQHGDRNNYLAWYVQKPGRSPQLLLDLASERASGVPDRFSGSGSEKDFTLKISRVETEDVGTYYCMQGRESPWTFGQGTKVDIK
2. ePGDM5 (antibody, V domains shown) VH: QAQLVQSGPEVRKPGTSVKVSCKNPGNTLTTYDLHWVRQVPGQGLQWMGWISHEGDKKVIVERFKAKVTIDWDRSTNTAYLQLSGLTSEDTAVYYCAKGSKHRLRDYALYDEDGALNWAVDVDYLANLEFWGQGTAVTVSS VL: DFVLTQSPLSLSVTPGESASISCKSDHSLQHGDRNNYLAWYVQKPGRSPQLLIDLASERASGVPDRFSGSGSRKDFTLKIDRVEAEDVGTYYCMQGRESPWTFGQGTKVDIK

Key:
["> 100 µg/mL", "> 100 µg/mL"]
